Hello, the source for this data is patent US20240366776A1, in case you need it.

# measurement_target: T1, human IL-2 (human, UniProt P60568 21-153, biotin-labeled in the IL2RB blocking assay)
# T1 construct: also called biotin-labeled IL-2 (Acro Biosystems IL2-H82E4)
# T1 sequence (P60568 21-153 limits assumed): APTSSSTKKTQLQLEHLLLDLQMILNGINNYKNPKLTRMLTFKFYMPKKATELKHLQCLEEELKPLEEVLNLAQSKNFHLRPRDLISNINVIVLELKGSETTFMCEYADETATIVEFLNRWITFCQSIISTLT
# test_description: HTRF

| binder | IL2 Binding |
| --- | --- |
| PD1-IL2-R02-B05 (scFv) QVQLVQSGAEVKKPGASVKVSCKASGYTFTNYYIHWVRQAPGQGLEWMGIINPRAGYTSYALKFQGRVTMTRDTSTSTVYMELSSLRSEDTAVYYCAGGWLDWGQGTLVTVSSASGGGGSGGGGSGGGGSHASDIQMTQSPSSLSASVGDRVTITCRASQSISSWLAWYQQKPGKAPKLLIYAASSLQSGVPSRFSGSGSGTDFTLTISSLQPEDFATYYCQQSFTMPITFGQGTRLEIK | 2490 |
| PD1-IL2-R06-E04 (SEQ ID NO: 33) (scFv, V5-tagged in the assay) scFv: QVQLVQSGAEVKKPGASVKVSCKASGYTFTRYYIHWVRQAPGQGLEWMGWINAYNGDTNYAQKLQGRVTMTRDTSTSTVYMELSSLRSEDTAVYYCARDSYYYDSFDYWGQGTLVTVSSASGGGGSGGGGSGGGGSHASDIQMTQSPSSLSASVGDRVTITCRASQTITDWLAWYQQKPGKAPKLLIYGASNLQGGVPSRFSGSGSGTDFTLTISSLQPEDFATYYCQQYYSSWTFGQGTKVEIK | 247 |
